- Tested on: SCC-15;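 further: growth inhibition of SCC-15 cells, read out with a cell viability assay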
- test.method.notes: cells
- Assay type: functional, cell-based, Homo sapiens
- measurement.parameters: Homo sapiens, SCC-15
- Description: SANGER: Inhibition of human SCC-15 cell growth in a cell viability assay.
pIC50: −log10 of the molar value.
Entries and their pIC50 values follow.
observation.type: pIC50

>>> observed_result("COc1cc([C@@H]2c3cc4c(cc3[C@@H](O[C@@H]3O[C@@H]5CO[C@@H](C)O[C@H]5[C@H](O)[C@H]3O)[C@H]3COC(=O)[C@H]23)OCO4)cc(OC)c1O [ETOPOSIDE]")
4.88
>>> observed_result("CC1=C2C[C@H]3[C@@H](CC=C4C[C@@H](O)CC[C@@]43C)[C@@H]2CC[C@]12O[C@@H]1C[C@H](C)CN[C@H]1[C@H]2C")
"< 4.80"
>>> observed_result("Cc1cnc(-c2cnc(NCCNc3ccc(C#N)cn3)nc2-c2ccc(Cl)cc2Cl)[nH]1")
"< 5.59"
>>> observed_result("CCOc1nc(NC(=O)Cc2cc(OC)ccc2OC)cc(N)c1C#N")
"< 5.00"
>>> observed_result("CS(=O)(=O)CCNCc1ccc(-c2ccc3ncnc(Nc4ccc(OCc5cccc(F)c5)c(Cl)c4)c3c2)o1")
"< 5.70"
>>> observed_result("CC(=O)O[C@@H]1[C@@H](OC(C)=O)[C@@H](O)[C@H](Oc2c(-c3ccc(O)cc3)oc3cc(O)cc(O)c3c2=O)O[C@H]1C")
"< 5.00"
>>> observed_result("O=C(NOCC1CC1)c1ccc(F)c(F)c1Nc1ccc(I)cc1Cl")
"< 5.00"

====

- Tested on: SW1088;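 further: growth inhibition of human SW1088 cells, read out by a cell viability assay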
- test.method.notes: cells
- Assay type: functional, cell-based, Homo sapiens
- measurement.parameters: Homo sapiens, SW1088
- Description: SANGER: Inhibition of human SW1088 cell growth in a cell viability assay.
Reported IC50 values for the following molecules.
observation.type: IC50

>>> observed_result("Cn1cncc1[C@@](N)(c1ccc(Cl)cc1)c1ccc2c(c1)c(-c1cccc(Cl)c1)cc(=O)n2C [TIPIFARNIB]")
"8.57 µM"
>>> observed_result("O=C(c1cc(Cc2n[nH]c(=O)c3ccccc23)ccc1F)N1CCN(C(=O)C2CC2)CC1 [OLAPARIB]")
"> 5 µM"
>>> observed_result("CN(Cc1cnc2nc(N)nc(N)c2n1)c1ccc(C(=O)N[C@@H](CCC(=O)O)C(=O)O)cc1 [METHOTREXATE]")
"> 0.2 µM"
>>> observed_result("O=C1N=C(NCc2cccs2)S/C1=C\\c1ccc2ncccc2c1")
"> 5 µM"
>>> observed_result("COc1ccc(-c2ccc3c(N4CCOC[C@@H]4C)nc(N4CCOC[C@@H]4C)nc3n2)cc1CO [AZD-8055]")
"1.37 µM"
>>> observed_result("O=C(NOCC1CC1)c1ccc(F)c(F)c1Nc1ccc(I)cc1Cl [CI-1040]")
"6.92 µM"
>>> observed_result("CN(c1ncccc1CNc1nc(Nc2ccc3c(c2)CC(=O)N3)ncc1C(F)(F)F)S(C)(=O)=O [PF-00562271]")
"> 2.56 µM"
>>> observed_result("COc1cc(F)c(F)c(Nc2ccc(I)cc2F)c1NS(=O)(=O)C1(CC(O)CO)CC1 (centres undefined)")
"> 5 µM"
>>> observed_result("C=CCc1cccc(/C=N/NC(=O)CN2CCN(Cc3ccccc3)CC2)c1O [PAC-1]")
"> 2.56 µM"

====

- System: SUP-T1;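 further: growth inhibition of human SUP-T1 cells, read out as cell viability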
- test.method.notes: cells
- Assay type: functional, cell-based
- measurement.parameters: Homo sapiens
- Description: SANGER: Inhibition of human SUP-T1 cell growth in a cell viability assay.
observation.type: IC50

>>> observed_result("C[C@]1(O)C[C@@H](c2nc(-c3ccc4ccc(-c5ccccc5)nc4c3)c3c(N)nccn32)C1 [LINSITINIB]")
"> 2560 nM"
>>> observed_result("CCC(=O)N1CCN(c2ccc(-n3c(=O)ccc4cnc5ccc(-c6cnc7ccccc7c6)cc5c43)cc2C(F)(F)F)CC1 [TORIN1]")
"> 1200 nM"
>>> observed_result("Cc1ccc(Nc2nccc(N(C)c3ccc4c(C)n(C)nc4c3)n2)cc1S(N)(=O)=O [PAZOPANIB]")
"> 8000 nM"
>>> observed_result("Cc1cnc(-c2cnc(NCCNc3ccc(C#N)cn3)nc2-c2ccc(Cl)cc2Cl)[nH]1 [LADUVIGLUSIB]")
"> 2560 nM"
>>> observed_result("Cn1cncc1[C@@](N)(c1ccc(Cl)cc1)c1ccc2c(c1)c(-c1cccc(Cl)c1)cc(=O)n2C [TIPIFARNIB]")
"787 nM"
>>> observed_result("C=C1C(=O)O[C@@H]2C3O[C@]3(C)CC/C=C(\\C)CC[C@@H]12 (stereo partly specified)")
"> 5000 nM"

====

- Test system: BB65-RCC;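 further: growth inhibition of the cell line, measured with a cell viability assay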
- test.method.notes: cells
- Type: functional, cell-based, Homo sapiens
- measurement.parameters: Homo sapiens, BB65-RCC
- Description: SANGER: Inhibition of human BB65-RCC cell growth in a cell viability assay.
Item-by-item account of IC50
observation.type: IC50

>>> observed_result("Cc1cc([C@@H](C)Nc2ccccc2C(=O)O)c2nc(N3CCOCC3)cc(=O)n2c1")
"> 5120 nM"
>>> observed_result("CN(c1ncccc1CNc1nc(Nc2ccc3c(c2)CC(=O)N3)ncc1C(F)(F)F)S(C)(=O)=O")
"> 2560 nM"
>>> observed_result("Cn1cncc1[C@@](N)(c1ccc(Cl)cc1)c1ccc2c(c1)c(-c1cccc(Cl)c1)cc(=O)n2C")
"2640 nM"
>>> observed_result("CC1=C2C[C@H]3[C@@H](CC=C4C[C@@H](O)CC[C@@]43C)[C@@H]2CC[C@]12O[C@@H]1C[C@H](C)CN[C@H]1[C@H]2C")
"> 16000 nM"

====

- System: T-24
- test.method.notes: cells
- Format: functional, cell-based, Homo sapiens
- measurement.parameters: Homo sapiens, T-24
- Description: SANGER: Inhibition of human T-24 cell growth in a cell viability assay.
observation.type: IC50

>>> observed_result("COc1ccc(-c2ccc3c(N4CCOC[C@@H]4C)nc(N4CCOC[C@@H]4C)nc3n2)cc1CO")
"> 2 µM"
>>> observed_result("Cn1cc(C2=C(c3ccc(Cl)cc3Cl)C(=O)NC2=O)c2ccccc21")
"> 10 µM"
>>> observed_result("CC(=O)O[C@@H]1[C@@H](OC(C)=O)[C@@H](O)[C@H](Oc2c(-c3ccc(O)cc3)oc3cc(O)cc(O)c3c2=O)O[C@H]1C")
"> 10 µM"
>>> observed_result("O=C(c1cc(Cc2n[nH]c(=O)c3ccccc23)ccc1F)N1CCN(C(=O)C2CC2)CC1")
"> 5 µM"
>>> observed_result("O=C1N=C(NCc2cccs2)S/C1=C\\c1ccc2ncccc2c1")
"> 5 µM"
>>> observed_result("CC(=O)O[C@@]12CO[C@@H]1C[C@H](O)[C@@]1(C)C(=O)[C@H](O)C3=C(C)[C@@H](OC(=O)[C@H](O)[C@@H](NC(=O)OC(C)(C)C)c4ccccc4)C[C@@](O)([C@@H](OC(=O)c4ccccc4)[C@H]21)C3(C)C")
"> 0.01 µM"
>>> observed_result("CN(Cc1cnc2nc(N)nc(N)c2n1)c1ccc(C(=O)N[C@@H](CCC(=O)O)C(=O)O)cc1 [METHOTREXATE]")
"> 0.2 µM"

====

- Tested on: KNS-42
- test.method.notes: cells
- Type: functional, cell-based, Homo sapiens
- measurement.parameters: Homo sapiens, KNS-42
- Description: SANGER: Inhibition of human KNS-42 cell growth in a cell viability assay.
observation.type: IC50

>>> observed_result("CS(=O)(=O)CCNCc1ccc(-c2ccc3ncnc(Nc4ccc(OCc5cccc(F)c5)c(Cl)c4)c3c2)o1")
"> 2000 nM"
>>> observed_result("Nc1ccn([C@@H]2O[C@H](CO)[C@@H](O)[C@@H]2O)c(=O)n1")
"> 2000 nM"
>>> observed_result("C=CCc1cccc(/C=N/NC(=O)CN2CCN(Cc3ccccc3)CC2)c1O")
"> 2560 nM"
>>> observed_result("CN1CCN(CCOc2cc(OC3CCOCC3)c3c(Nc4c(Cl)ccc5c4OCO5)ncnc3c2)CC1")
"> 2000 nM"
>>> observed_result("C[C@]1(O)C[C@@H](c2nc(-c3ccc4ccc(-c5ccccc5)nc4c3)c3c(N)nccn32)C1")
"> 2560 nM"
>>> observed_result("O=C(/C=C/c1ccccc1)NC(NC(=S)Nc1cccc2cccnc12)C(Cl)(Cl)Cl (stereo unspecified)")
"> 16000 nM"
>>> observed_result("CN(C)C/C=C/C(=O)Nc1cc2c(Nc3ccc(F)c(Cl)c3)ncnc2cc1O[C@H]1CCOC1")
"> 500 nM"
>>> observed_result("CN(Cc1cnc2nc(N)nc(N)c2n1)c1ccc(C(=O)N[C@@H](CCC(=O)O)C(=O)O)cc1 [METHOTREXATE]")
"> 200 nM"
>>> observed_result("Cc1cc(Nc2cc(N3CCN(C)CC3)nc(Sc3ccc(NC(=O)C4CC4)cc3)n2)n[nH]1")
"> 2000 nM"
>>> observed_result("CC(=O)O[C@@H]1[C@@H](OC(C)=O)[C@@H](O)[C@H](Oc2c(-c3ccc(O)cc3)oc3cc(O)cc(O)c3c2=O)O[C@H]1C")
"> 10000 nM"
>>> observed_result("C=C1C(=O)O[C@@H]2C3O[C@]3(C)CC/C=C(\\C)CC[C@@H]12 (stereo partly specified)")
"> 5000 nM"
